# TEST_PROTOCOL: Stability analysis in buffered solution (half-life)
# Assay type: physicochemical
# CONDITION_SUMMARY: H2O; initial concentration 6.23 × 10^-3 M
OBSERVATION_TYPE: half-life at 6230 µM

For this compound ( CC1(C)COC(C)(C)N1Cl ), measured half-life at 6230 µM is ~58 h

###

# TEST_PROTOCOL: Stability analysis in buffered solution (half-life)
# Format: physicochemical
# CONDITION_SUMMARY: 0.1 M Na2B4O7 pH 9.3; 40 °C; initial concentration 1.52 × 10^-3 M
OBSERVATION_TYPE: half-life at 1520 µM

For this molecule ( CC1(C)COC(C)(C)N1Cl ), measured half-life at 1520 µM is ~5 h

###

# TEST_PROTOCOL: Stability analysis in buffered solution (half-life)
# Assay type: physicochemical
# CONDITION_SUMMARY: 0.1 M NaH2PO4 pH 7.0; 40 °C; initial concentration 6.70 × 10^-3 M
OBSERVATION_TYPE: half-life at 6700 µM

For this molecule ( CC1(C)COC(C)(C)N1Cl ), measured half-life at 6700 µM is ~54 h

###

# TEST_PROTOCOL: Stability analysis in buffered solution (half-life)
# Assay type: physicochemical
# CONDITION_SUMMARY: 0.1 M NaOAc pH 4.6; 40 °C; initial concentration 2.59 × 10^-3 M
OBSERVATION_TYPE: half-life at 2590 µM (h)
Please state the figure in h; there is no need to write the unit.

For this molecule ( CC1(C)COC(C)(C)N1Cl ), measured half-life at 2590 µM is 2.2

###

# TEST_PROTOCOL: Stability analysis in buffered solution (half-life)
# Assay type: physicochemical
# CONDITION_SUMMARY: 0.1 M Na2B4O7 pH 9.3; 40 °C; initial concentration 5.98 × 10^-3 M
OBSERVATION_TYPE: half-life at 5980 µM

For this compound ( CC1(C)COC(C)(C)N1Cl ), measured half-life at 5980 µM is ~3.3 h

###

# TEST_PROTOCOL: Stability analysis in buffered solution (half-life)
# Type: physicochemical
# CONDITION_SUMMARY: 0.1 M NaOAc pH 4.6; 40 °C; initial concentration 5.47 × 10^-3 M
OBSERVATION_TYPE: half-life at 5470 µM (h)
Please state the figure in h; there is no need to write the unit.

For this compound ( CC1(C)COC(C)(C)N1Cl ), measured half-life at 5470 µM is 2.6

###

# TEST_PROTOCOL: Stability analysis in buffered solution (half-life)
# Assay type: physicochemical
# CONDITION_SUMMARY: 0.1 M NaH2PO4 pH 7.0; 40 °C; initial concentration 1.68 × 10^-3 M
OBSERVATION_TYPE: half-life at 1680 µM

For this molecule ( CC1(C)COC(C)(C)N1Cl ), measured half-life at 1680 µM is ~70 h
